Let's look at some pIC50 data for UniProt P42336 that I collected from the literature.
pIC50: −log10 of the molar value.

| MOLECULE | pIC50 |
| --- | --- |
| CC(=O)N1CCN(c2nc3c(N4CCOCC4)nc(-c4cnc(N)nc4)nc3n2CC(F)(F)F)CC12CC2 | > 8.00 |
| Cc1nc2ccc(-c3ccc4c(c3)CN(C(=O)N3CCN(c5ccc(F)cc5)CC3)CCO4)cc2[nH]1 | 5.52 to 6.00 |
| O=c1cc(Oc2ccc(-c3ccccc3)cc2)c2ccccc2[nH]1 | 6.03 |
| COc1ncc(-c2ccc3nccc(-c4ccc(CN5CCCCC5)cc4)c3c2)cc1NS(=O)(=O)c1ccc(F)cc1F | 8.92 |
| Cc1cc(-c2cccc3cc([C@H](C)Nc4ncnc5scnc45)n(-c4ccccc4)c(=O)c23)cnc1C | 5.00 to 6.00 |
| Cc1nc2ccc(-c3ccc4c(c3)CN(C(=O)N3CCCC3Cc3ccccc3)CCO4)cc2[nH]1 (centres unmarked) | 5.52 to 6.00 |
| Nc1nc2cc(-c3ccc4ncc(C(=O)Nc5cccnc5)n4c3)ccc2o1 | > 7.00 |

Find pIC50 for `COC[C@@H]1CCN(C(=O)Nc2nc3c(s2)-c2nc(C(C)(C)C(F)(F)F)sc2CC3)[C@@H]1C(N)=O` on UniProt P42336 and write it down.
8.05

###

Let's look at some IC50 data for PIK3CA (human) (UniProt P42336) that I collected from the literature.

| SMILES ENTRY | TARGET OF ASSAY | MEASURED PARAMETER | RECORDED MEASUREMENT |
| --- | --- | --- | --- |
| CN(CCN1CCOCC1)c1cnc2ccc(-c3ccc4oc(N)nc4c3)cc2n1 | PIK3CA (human) (UniProt P42336) | IC50 | < 1000 nM |
| Cc1cccnc1-n1c(Cn2nc(Cl)c3c(N)ncnc32)cc2cccc(C)c2c1=O | PIK3CA (human) (UniProt P42336) | IC50 | > 10000 nM |
| C[C@H]1CN(c2cnc3ccc(-c4ccc5nc(N)oc5c4)cc3n2)CCN1 | PIK3CA (human) (UniProt P42336) | IC50 | < 1000 nM |
| CNCCn1c([C@H](C)NC(=O)c2c(N)nn3cccnc23)cc2cccc(Cl)c2c1=O | PIK3CA (human) (UniProt P42336) | IC50 | 1000 to 10000 nM |

Identify measured IC50 associated with `Cc1nc2cnc3ccc(-c4cnc(N)c(C(F)(F)F)c4)nc3c2n1C1CCN(CC(=O)N2CCOCC2)CC1`
< 100 nM

Identify measured IC50 associated with `Nc1ncc(-c2nc(N3CCOCC3)c3ncc(-c4ccc5c(c4)NC(=O)CO5)cc3n2)cn1`
< 50 nM

Identify measured IC50 associated with `CS(=O)(=O)N1CCN(c2nc3c(N4CCOCC4)nc(-c4cnc(N)nc4)nc3n2[C@H]2CCN(S(C)(=O)=O)C2)CC1`
20 to 50 nM

Identify measured IC50 associated with `FC(F)c1nc2ccccc2n1-c1nc(N[C@H]2CC[C@H](N3CCOCC3)CC2)nc(N2CCOCC2)n1`
1500 nM

###

Let's look at some pIC50 data for PIK3CA (human) that I collected from the literature.
pIC50: −log10 of the molar value.

Use the examples below as a reference point.
| MOLECULE | pIC50 |
| --- | --- |
| [2H]C1([2H])OC([2H])([2H])C([2H])([2H])N(C(=O)c2cnc3ccc(-c4ccc5oc(N)nc5c4)cn23)C1([2H])[2H] | > 6.00 |
| Cc1nc(NC(=O)N2CC[C@@H](C)[C@H]2C(N)=O)sc1-c1ccnc(C(C)(C)C)c1 | 8.05 |
| CN(Cc1ccccc1)C(=O)C1CCN(c2ccnc3c2c(C=C2Oc4ccc(NC(=O)Nc5cccnc5)cc4C2=O)cn3C)CC1 | < 5.00 |
| Nc1noc2cc(-c3ccc4ncc(C(=O)N5CCOCC5)n4c3)ccc12 | < 5.00 |

Identify measured pIC50 associated with `C[C@H](Nc1ccnc2ccnn12)c1cc2cccc(-c3cnn(C)c3)c2c(=O)n1-c1cccc(F)c1`
5.00 to 6.00

Identify measured pIC50 associated with `COC[C@@H]1CCCN1[C@H]1CC[C@H](CNc2cc(-n3c(C(F)F)nc4ccccc43)nc(N3CCOCC3)n2)CC1`
5.51

Identify measured pIC50 associated with Cc1csc2nc(C(C)Nc3nc(N)nc4[nH]cnc34)c(-c3ccccc3)c(=O)n12 (centres unmarked)
< 6.30

Identify measured pIC50 associated with `Nc1ncc(-c2nc(N3CCOCC3)c3ncc(-c4cccc(NC(=O)C5CCOCC5)c4)cc3n2)cn1`
> 7.30
